- assay_system: T1, Recombinant mouse MMR (R&D systems) (mouse, UniProt Q61830 20-1388)
- T1 construct: Antigen of the PE-ELISA and the SPR; also called mMMR; recombinant mMMR
- T1 sequence: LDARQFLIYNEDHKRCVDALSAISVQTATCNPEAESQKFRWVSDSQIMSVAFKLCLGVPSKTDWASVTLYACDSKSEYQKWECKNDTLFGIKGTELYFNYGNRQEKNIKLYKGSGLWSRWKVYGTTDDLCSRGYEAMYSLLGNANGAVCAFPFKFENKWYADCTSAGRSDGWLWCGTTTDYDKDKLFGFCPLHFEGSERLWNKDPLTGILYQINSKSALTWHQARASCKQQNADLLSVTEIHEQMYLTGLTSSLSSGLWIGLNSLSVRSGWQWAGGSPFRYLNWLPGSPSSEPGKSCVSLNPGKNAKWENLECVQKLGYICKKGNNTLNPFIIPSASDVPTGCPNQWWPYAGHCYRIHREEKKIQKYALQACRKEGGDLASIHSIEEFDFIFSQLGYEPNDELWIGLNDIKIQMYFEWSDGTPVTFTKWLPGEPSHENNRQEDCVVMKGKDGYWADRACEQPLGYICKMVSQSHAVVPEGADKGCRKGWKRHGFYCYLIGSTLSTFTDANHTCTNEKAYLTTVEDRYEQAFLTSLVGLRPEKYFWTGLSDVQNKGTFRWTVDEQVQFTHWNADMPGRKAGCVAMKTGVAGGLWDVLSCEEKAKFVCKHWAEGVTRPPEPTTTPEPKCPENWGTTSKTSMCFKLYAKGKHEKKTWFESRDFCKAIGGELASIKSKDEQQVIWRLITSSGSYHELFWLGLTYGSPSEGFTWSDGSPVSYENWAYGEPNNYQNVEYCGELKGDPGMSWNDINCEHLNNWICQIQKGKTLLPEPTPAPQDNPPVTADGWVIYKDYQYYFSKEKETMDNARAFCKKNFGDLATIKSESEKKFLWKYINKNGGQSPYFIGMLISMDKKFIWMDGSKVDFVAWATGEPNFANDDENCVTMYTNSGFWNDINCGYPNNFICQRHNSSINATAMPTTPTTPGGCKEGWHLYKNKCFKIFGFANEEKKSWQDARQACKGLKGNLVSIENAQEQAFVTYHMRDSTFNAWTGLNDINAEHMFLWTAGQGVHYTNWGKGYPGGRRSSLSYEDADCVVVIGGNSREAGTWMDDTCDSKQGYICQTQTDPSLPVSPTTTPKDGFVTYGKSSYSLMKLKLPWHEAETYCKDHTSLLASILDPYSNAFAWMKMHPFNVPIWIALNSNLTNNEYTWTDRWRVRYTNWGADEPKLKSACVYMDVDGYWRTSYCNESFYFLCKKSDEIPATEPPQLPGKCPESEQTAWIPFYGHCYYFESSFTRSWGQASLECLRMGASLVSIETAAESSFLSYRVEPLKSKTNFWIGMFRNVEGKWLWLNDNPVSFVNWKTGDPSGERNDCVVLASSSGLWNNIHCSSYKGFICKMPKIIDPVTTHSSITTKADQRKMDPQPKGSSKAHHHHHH
- protocol_details: SPR, BIAcore T100; mouse MMR on CM5 chip, sdAb as analyte
Would you kindly list log10 of Kd for each of these binders?
A difference of one corresponds to tenfold Kd; all values are log10 with Kd in nM.

Task: Which value of log10 of Kd has been reported for NbhmMMRm14.4 (VHH, Produced from pMECS with C-terminal HA and 6xHis tag) VHH: QVQLQESGGGLVQAGDSLRLSCAASGRTFSINYMGWYRQAPGKQRELVAAITSGSGSTNYADSVKGRFTISRDNAKNTMYLQMNSLKPEDTAVYYCNADMDSSLSGGYVDVWGQGTQVTVSS in the records?
Result: 1.83

Task: Next: NbhmMMRm10.79 (VHH, Produced from pMECS with C-terminal HA and 6xHis tag) VHH: QVQLQESGGGLVQPGGSLKLSCAASGSIFSIKTMGWYRQAPGKQRELVAAVSSGGSTNYADSVKGRFTISRDNAKNAVYLQMNSLKPEDTAVYYCNADGVVAWDQPYDNYWGQGTQVTVSS
Result: 1.59

Task: Next: NbhMMRm5.38 (VHH, Produced from pMECS with C-terminal HA and 6xHis tag; also called NbhmMMRm5.38; Nb5.38) VHH: QVQLQESGGGLVQAGGSLRLSCAASGFTDDDYDIGWFRQAPGKEREGVSCISSSDGSTYYADSVKGRFTISSDNAKNTVYLQMNSLKPEDTAVYYCAADFFRWDSGSYYVRGCRHATYDYWGQGTQVTVSS
Result: 1.40

Task: Next: NbhmMMRm3.49 (VHH, Produced from pMECS with C-terminal HA and 6xHis tag; also called NbhMMRm3.49) VHH: QVQLQESGGGLVQPGGSLRLSCAASGFSLDYYAIGWFRQAPGKEREGISCISYKGGSTTYADSVKGRFTISKDNAKNTAYLQMNSLKPEDTGIYSCAAGFVCYNYDYWGQGTQVTVSS
Result: 1.08

Task: Next: NbhMMRm11.5 (VHH, Produced from pMECS with C-terminal HA and 6xHis tag) VHH: QVQLQESGGGLVQPGGSLMLSCAASGNIFTINRMGWYRQAPGKQRELVAAITSGGNTNYADSVKGRFTISRDNAKNTVYLQMNSLKPEDTAVYYCNAAIVTMTSPYSDYWGQGTQVTVSS
Result: 2.08

Task: Next: NbhmMMRm14.93 (VHH, Produced from pMECS with C-terminal HA and 6xHis tag) VHH: QVQLQESGGGLVQAGDSLRLSCAASGRTFSINYMGWYRQAPGKQRELVAAITSGSGSTNYADSVKGRFTISRDNAKKTMYLQMNSLKPEDTAVYYCNADMDSSLSGGYVDVWGQGTQVTVSS
Result: 1.87

Task: Next: NbhmMMRm22.84 (VHH, Produced from pMECS with C-terminal HA and 6xHis tag) VHH: QVQLQESGGGLVQPGGSLRLSCAASGRTFSNYVNYAMGWFRQFPGKEREFVASISWSSVTTYYADSVKGRFTISRDNAKNTVYLQMNSLKPEDTAVYYCAAHLAQYSDYAYRDPHQFGAWGQGTQVTVSS
Result: 2.11

Task: Next: NbhmMMRm15.49 (VHH, Produced from pMECS with C-terminal HA and 6xHis tag) VHH: QVQLQESGGGLVQAGGSLRLSCAASGSTFSINNMGWYRQAPGKQRELVAGITGGNTHYADSVKGRFTISRDNAKNTMYLQMNSLKPEDTAVYYCNANWGAYWGQGTQVTVSS
Result: 1.64
